Biological target: KRAS G12S (Homo sapiens, UniProt P01116+P62937, G12S)
Sequence (P01116 1-169 isoform P01116-2 G12S limits assumed): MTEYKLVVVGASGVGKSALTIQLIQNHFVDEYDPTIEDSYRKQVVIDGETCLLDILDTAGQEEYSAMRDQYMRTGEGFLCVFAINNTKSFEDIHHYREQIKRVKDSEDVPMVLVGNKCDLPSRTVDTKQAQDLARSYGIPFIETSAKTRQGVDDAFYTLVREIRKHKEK
Sequence (P62937 whole entry): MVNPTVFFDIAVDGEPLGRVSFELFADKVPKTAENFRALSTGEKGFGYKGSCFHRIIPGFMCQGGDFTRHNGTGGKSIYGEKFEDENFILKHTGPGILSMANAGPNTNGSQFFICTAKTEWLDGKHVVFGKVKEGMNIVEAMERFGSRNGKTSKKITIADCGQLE
Experiment: Ras-Raf disruption/FRET/MOA assay, KRAS G12S
Type: biochemical
Conditions: disruption of BRAF RBD binding, with Cyclophilin A; read-out: KRAS G12S FRET IC50
Excerpt: Disruption of B-Raf Ras-Binding Domain (BRAF^RBD) Interaction with K-Ras by Compounds of the Invention (Also Called a FRET Assay or an MOA Assay) Note—The following protocol describes a procedure for monitoring disruption of K-Ras G12C (GMP-PNP) binding to BRAF^RBD by a compound of the invention. This protocol may also be executed substituting other Ras proteins or nucleotides, such as K-Ras G12D and K-Ras G13D. […]
observable: IC50

CCn1c(-c2cccnc2[C@H](C)OC)c2c3cc(ccc31)-c1cc(O)cc(c1)C[C@H](NC(=O)[C@H](C(C)C)N1CO[C@]3(CCN(C(=O)[C@H]4CN4)C3)C1=O)C(=O)N1CCC[C@H](N1)C(=O)OCC(C)(C)C2 [Compound 231]: 10 to 100 nM

// below: IC50 requested for another molecule
Q. Report IC50 for CCn1c(-c2cnccc2COC)c2c3cc(ccc31)-c1cc(O)cc(c1)C[C@H](NC(=O)[C@H](C(C)C)N(C)C(=O)CN(C)C(=O)[C@@H]1[C@H](C)N1[S@@+]([O-])C(C)(C)C)C(=O)N1CCC[C@H](N1)C(=O)OCC(C)(C)C2 (some centres unmarked) [Compound 54] tested on KRAS G12S (Homo sapiens, UniProt P01116+P62937, G12S).
A. 10 to 100 nM
